Reported values of Ki for individual entries
target.under.test: human EP3 receptor (Homo sapiens, UniProt P43115)
Construct: expressed in transfected cells; host or cells: CHO-K1
Sequence (P43115 whole entry): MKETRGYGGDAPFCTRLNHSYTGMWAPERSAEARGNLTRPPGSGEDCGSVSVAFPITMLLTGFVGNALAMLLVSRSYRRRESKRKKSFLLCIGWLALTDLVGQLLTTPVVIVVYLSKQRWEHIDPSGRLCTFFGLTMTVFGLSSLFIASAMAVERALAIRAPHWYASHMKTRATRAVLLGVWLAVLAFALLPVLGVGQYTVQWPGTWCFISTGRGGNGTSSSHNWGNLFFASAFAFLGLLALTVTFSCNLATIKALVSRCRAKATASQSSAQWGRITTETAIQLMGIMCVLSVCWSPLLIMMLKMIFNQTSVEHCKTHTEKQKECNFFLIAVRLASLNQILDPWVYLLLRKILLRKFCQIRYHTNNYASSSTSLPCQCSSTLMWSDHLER
test.description: human EP3 calcium mobilisation assay
Type: cell-based
condition.summary: human EP3, CHO-K1 cells, antagonism of PGE2; averages of a number of experiments; read-out: functional pKi value (converted)
Counter-ions that a name gives are not always drawn.

Here are 2 compounds together with their reported answers.
# compound, Ki
measured = [
    ("Clc1ccc(OCc2ccccc2)c(Cc2cccc(-c3ncc[nH]3)n2)c1 [Example 43, Hydrochloride]", "≤ 1000 nM"),
    ("CC(C)(C)NC(=O)c1cccc(Cc2cc(Cl)ccc2OCc2ccccc2)n1", "≤ 3160 nM"),
]

Consider the additional compound presented here.
Give reported Ki value for "CC(C)COc1ccc(Cl)cc1Cc1cccc(-c2nc3c(ccc4nn[nH]c43)[nH]2)n1"
≤ 1000 nM

###

target.under.test: human prostanoid EP1 receptor (Homo sapiens, UniProt P34995)
Construct: expressed in transfected cells; host or cells: CHO-K1 (membrane fraction)
Sequence (P34995 1-402): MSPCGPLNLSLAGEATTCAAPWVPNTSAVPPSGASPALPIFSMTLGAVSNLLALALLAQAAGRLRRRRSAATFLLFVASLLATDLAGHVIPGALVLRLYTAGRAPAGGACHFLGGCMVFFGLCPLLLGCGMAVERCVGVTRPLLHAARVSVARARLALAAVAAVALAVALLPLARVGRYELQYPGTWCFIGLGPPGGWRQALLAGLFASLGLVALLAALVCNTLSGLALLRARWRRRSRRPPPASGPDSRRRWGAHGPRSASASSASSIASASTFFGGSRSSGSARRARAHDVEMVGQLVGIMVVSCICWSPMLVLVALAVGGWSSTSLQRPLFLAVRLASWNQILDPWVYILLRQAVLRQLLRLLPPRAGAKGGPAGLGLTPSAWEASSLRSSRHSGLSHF
test.description: Binding assay for the human prostanoid EP1 receptor (competition with [3H]-PGE2)
condition.summary: [3H]-PGE2 competition, human EP1, CHO-K1 membranes; averages of a number of experiments; read-out: pIC50 value (converted)
Counter-ions that a name gives are not always drawn.
measured.metric: IC50

Example cases with answers are listed next.
# molecule, target.under.test, IC50
measured = [
    ("CN(CCC#N)Cc1ccc(NC(=O)c2cccc(Cc3cc(Cl)ccc3OCc3ccc(Cl)cc3F)n2)cc1", "human prostanoid EP1 receptor (Homo sapiens, UniProt P34995)", "≤ 100 nM"),
    ("Clc1ccc(OCc2ccccc2)c(Cc2cccc(-c3nc4ccc(N5CCOCC5)cc4[nH]3)n2)c1", "human prostanoid EP1 receptor (Homo sapiens, UniProt P34995)", "≤ 100 nM"),
    ("CN(C)Cc1ccc2nc(-c3cccc(Cc4cc(Cl)ccc4OCc4ccc(Cl)cc4F)n3)[nH]c2c1 [Example 58, Hydrochloride]", "human prostanoid EP1 receptor (Homo sapiens, UniProt P34995)", "≤ 100 nM"),
    ("CC(C)(C)CC(=O)Nc1cccc(Cc2cc(Cl)ccc2OCc2ccccc2)n1", "human prostanoid EP1 receptor (Homo sapiens, UniProt P34995)", "≤ 100 nM"),
    ("CN(C)c1ccc2nc(-c3cccc(Cc4cc(Cl)ccc4OCc4ccccc4)n3)[nH]c2c1", "human prostanoid EP1 receptor (Homo sapiens, UniProt P34995)", "≤ 100 nM"),
]

Enter recorded IC50 with human prostanoid EP1 receptor (Homo sapiens, UniProt P34995) for "CN(C)Cc1ccc(NC(=O)c2cccc(Cc3cc(Cl)ccc3OCc3ccc(Cl)cc3F)n2)cc1" here.
≤ 100 nM

# assay system human prostanoid EP1 receptor (Homo sapiens, UniProt P34995): give IC50 of "CC(C)COc1ccc(Cl)cc1Cc1cccc(NC(=O)c2ccc(CO)cc2)n1"
≤ 100 nM

Check human prostanoid EP1 receptor (Homo sapiens, UniProt P34995) data and give IC50 for "Clc1ccc(OCc2ccccc2)c(Cc2cccc(-c3nc4cc5cn[nH]c5cc4[nH]3)n2)c1" .
≤ 100 nM

# return IC50 for "CC(C)COc1ccc(Cl)cc1Cc1cccc(-c2nc3ccccc3[nH]2)n1" , test system: human prostanoid EP1 receptor (Homo sapiens, UniProt P34995)
≤ 100 nM

Report value only: IC50, human prostanoid EP1 receptor (Homo sapiens, UniProt P34995), Clc1ccc(OCc2ccccc2)c(Cc2cccc(-c3nc4ccccc4[nH]3)n2)c1 [Example 34, hydrochloride]
≤ 100 nM

Lab note: human prostanoid EP1 receptor (Homo sapiens, UniProt P34995) assay, enter IC50 for Clc1ccc(OCc2ccccc2)c(Cc2cccc(-c3nc4cc(Cl)ccc4[nH]3)n2)c1 [Example 35, hydrochloride] here
≤ 100 nM

Retrieve IC50 on human prostanoid EP1 receptor (Homo sapiens, UniProt P34995); query Fc1cc(Cl)ccc1COc1ccc(Cl)cc1Cc1cccc(-c2nc3ccccc3[nH]2)n1 [Example 19, Hydrochloride]
≤ 100 nM

###

target.under.test: human EP1 receptor (Homo sapiens)
Construct: expressed in transfected cells; host or cells: CHO-K1
Sequence (P34995 1-402): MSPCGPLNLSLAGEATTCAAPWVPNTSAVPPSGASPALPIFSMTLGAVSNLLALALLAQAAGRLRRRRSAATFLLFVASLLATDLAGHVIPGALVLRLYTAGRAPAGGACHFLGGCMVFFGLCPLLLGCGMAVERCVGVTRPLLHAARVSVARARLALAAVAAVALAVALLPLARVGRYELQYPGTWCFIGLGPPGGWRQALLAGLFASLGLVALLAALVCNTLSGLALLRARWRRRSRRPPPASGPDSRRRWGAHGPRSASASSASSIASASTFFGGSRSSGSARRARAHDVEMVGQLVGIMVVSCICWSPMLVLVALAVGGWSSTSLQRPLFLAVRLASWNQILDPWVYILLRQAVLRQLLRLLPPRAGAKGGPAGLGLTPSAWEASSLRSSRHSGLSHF
test.description: human EP1 calcium mobilisation assay
Type: cell-based
condition.summary: human EP1, CHO-K1 cells, antagonism of PGE2; averages of a number of experiments; read-out: functional pKi value (converted)
Structures can show the parent of a compound that is named as a salt.
measured.metric: Ki

In the examples that follow, each entry is paired with its recorded Ki.
# compound, target.under.test, Ki
data = [
    ("COc1ccc2[nH]c(-c3cccc(Cc4cc(Cl)ccc4OCc4ccccc4)n3)nc2c1 [Example 31]", "human EP1 receptor (Homo sapiens)", "≤ 316 nM"),
    ("CC(C)(C)CC(=O)Nc1cccc(Cc2cc(Cl)ccc2OCc2ccccc2)n1 [Example 5]", "human EP1 receptor (Homo sapiens)", "≤ 316 nM"),
    ("CC(C)COc1ccc(Cl)cc1Cc1cccc(-c2nc3cnc4ccccc4c3[nH]2)n1 [Example 24, hydrochloride]", "human EP1 receptor (Homo sapiens)", "≤ 316 nM"),
]

For the compound CN(CCC#N)Cc1ccc(NC(=O)c2cccc(Cc3cc(Cl)ccc3OCc3ccc(Cl)cc3F)n2)cc1 [Example 57] , give its reported Ki.
≤ 10000 nM

Provide one value: measured Ki of Clc1ccc(OCc2ccccc2)c(Cc2cccc(-c3nc4cnccc4[nH]3)n2)c1 [Example 38]
≤ 316 nM

###

target.under.test: human EP1 receptor (Homo sapiens, UniProt P34995)
Construct: expressed in transfected cells; host or cells: CHO-K1
test.description: human EP1 calcium mobilisation assay
Format: cell-based
condition.summary: human EP1, CHO-K1 cells, antagonism of PGE2; averages of a number of experiments; read-out: functional pKi value (converted)
Counter-ions that a name gives are not always drawn.
The following molecules are listed with their measured Ki values.

Some solved entries appear below for comparison.
# molecule, target.under.test, Ki
measured = [
    ("CC(C)COc1ccc(Cl)cc1Cc1cccc(NC(=O)c2ccc(CN3CCCCC3)cc2)n1", "human EP1 receptor (Homo sapiens, UniProt P34995)", "≤ 10000 nM"),
    ("CC(C)COc1ccc(Cl)cc1Cc1cccc(NC(=O)c2ccc(CN3CCCC3)cc2)n1", "human EP1 receptor (Homo sapiens, UniProt P34995)", "≤ 10000 nM"),
    ("CC(C)COc1ccc(Cl)cc1Cc1cccc(-c2nc3nccnc3[nH]2)n1 [Example 22, hydrochloride]", "human EP1 receptor (Homo sapiens, UniProt P34995)", "≤ 316 nM"),
    ("O=C(NCc1ccccn1)c1cccc(Cc2cc(Cl)ccc2OCc2ccccc2)n1", "human EP1 receptor (Homo sapiens, UniProt P34995)", "≤ 316 nM"),
]

For the molecule CC(C)COc1ccc(Cl)cc1Cc1cccc(NC(=O)c2ccc(CN3CCOCC3)cc2)n1 [Example 45, Hydrochloride] , report Ki.
≤ 316 nM

Answer with reported Ki of CC(C)COc1ccc(Cl)cc1Cc1cccc(-c2nc3ncccc3[nH]2)n1 [Example 21, hydrochloride]
≤ 316 nM

Give recorded Ki. "Clc1ccc(OCc2ccccc2)c(Cc2cccc(-c3nc4cncnc4[nH]3)n2)c1"
≤ 316 nM

Specify reported Ki for the molecule shown: "O=C(Nc1ccc(CO)cc1)c1cccc(Cc2cc(Cl)ccc2OCc2ccc(Cl)cc2F)n1"
≤ 10000 nM

# credit: patent US20090099177A1
